System: Cryptococcus neoformans
experiment: Antifungal activity against Cryptococcus neoformans ATCC 14116 assessed as growth inhibition at 10 mg/mL by bioautographic agar overlay method
Type: functional, organism-based
Active and inactive are the calls of the source. The calls are words filed in the database; no cut-off is given here.
measured.attribute: growth inhibition (GI)

O[C@H]1[C@H](O)[C@H](n2cc(-c3cccc(-c4cn([C@@H]5C=C(Br)[C@@H](O)[C@@H](O)[C@@H]5O)nn4)c3)nn2)C=C(Br)[C@H]1O :: inactive
O[C@H]1[C@H](O)[C@@H](n2cc(-c3ccc(-c4cn([C@H]5C=C(Br)[C@@H](O)[C@@H](O)[C@@H]5O)nn4)cc3)nn2)C=C(Br)[C@H]1O :: inactive
C#Cc1ccc(-c2cn([C@H]3C=C(Br)[C@@H](O)[C@@H](O)[C@@H]3O)nn2)cc1 :: inactive
O[C@H]1[C@H](O)[C@H](n2cc(-c3cccc(-c4cn([C@H]5C=C(Br)[C@@H](O)[C@@H](O)[C@@H]5O)nn4)c3)nn2)C=C(Br)[C@H]1O (mixture of isomers) :: inactive
O[C@H]1[C@H](O)[C@H](n2cc(-c3ccc(-c4cn([C@H]5C=C(Br)[C@@H](O)[C@@H](O)[C@@H]5O)nn4)cc3)nn2)C=C(Br)[C@H]1O (mixture of isomers) :: inactive
C#Cc1cccc(-c2cn([C@H]3C=C(Br)[C@@H](O)[C@@H](O)[C@@H]3O)nn2)c1 :: inactive

Need growth inhibition (GI) for each of these molecules.
1. O[C@H]1[C@H](O)[C@H](n2cc(-c3ccc(-c4cn([C@@H]5C=C(Br)[C@@H](O)[C@@H](O)[C@@H]5O)nn4)cc3)nn2)C=C(Br)[C@H]1O
2. C#Cc1cccc(-c2cn([C@@H]3C=C(Br)[C@@H](O)[C@@H](O)[C@@H]3O)nn2)c1
3. C#Cc1ccc(-c2cn([C@@H]3C=C(Br)[C@@H](O)[C@@H](O)[C@@H]3O)nn2)cc1
4. O[C@H]1[C@H](O)[C@@H](n2cc(-c3cccc(-c4cn([C@H]5C=C(Br)[C@@H](O)[C@@H](O)[C@@H]5O)nn4)c3)nn2)C=C(Br)[C@H]1O

### Response
1. inactive
2. inactive
3. inactive
4. inactive

====

System: Nakaseomyces glabratus
experiment: Antifungal activity against Candida glabrata ATCC 15126 assessed as growth inhibition at 10 mg/mL by bioautographic agar overlay method
Format: functional, organism-based
Activity calls are given as the source filed them. The rule behind the calls is not given here.
Respond using exactly one of the listed classes: 1 = active, 0 = inactive

Recorded results for 3 compounds are shown here.
O[C@H]1[C@H](O)[C@H](n2cc(-c3cccc(-c4cn([C@H]5C=C(Br)[C@@H](O)[C@@H](O)[C@@H]5O)nn4)c3)nn2)C=C(Br)[C@H]1O (mixture of isomers) :: 1
O[C@H]1[C@H](O)[C@@H](n2cc(-c3ccc(-c4cn([C@H]5C=C(Br)[C@@H](O)[C@@H](O)[C@@H]5O)nn4)cc3)nn2)C=C(Br)[C@H]1O :: 0
C#Cc1cccc(-c2cn([C@H]3C=C(Br)[C@@H](O)[C@@H](O)[C@@H]3O)nn2)c1 :: 0

### Prompt Which outcome was assigned to C#Cc1ccc(-c2cn([C@H]3C=C(Br)[C@@H](O)[C@@H](O)[C@@H]3O)nn2)cc1 in this test?
### Response 0
